Source of measurements: patent US20210155689A1

Target: T1, human LAG-3 protein with hFc tag (hLAG-3-hFc protein) (human, UniProt P18627 23-450)
T1 construct: also called immunogen 1; LAG-3 extracellular domain protein; not shown: human IgG Fc fragment (hFc) of the pCpC vector
T1 sequence: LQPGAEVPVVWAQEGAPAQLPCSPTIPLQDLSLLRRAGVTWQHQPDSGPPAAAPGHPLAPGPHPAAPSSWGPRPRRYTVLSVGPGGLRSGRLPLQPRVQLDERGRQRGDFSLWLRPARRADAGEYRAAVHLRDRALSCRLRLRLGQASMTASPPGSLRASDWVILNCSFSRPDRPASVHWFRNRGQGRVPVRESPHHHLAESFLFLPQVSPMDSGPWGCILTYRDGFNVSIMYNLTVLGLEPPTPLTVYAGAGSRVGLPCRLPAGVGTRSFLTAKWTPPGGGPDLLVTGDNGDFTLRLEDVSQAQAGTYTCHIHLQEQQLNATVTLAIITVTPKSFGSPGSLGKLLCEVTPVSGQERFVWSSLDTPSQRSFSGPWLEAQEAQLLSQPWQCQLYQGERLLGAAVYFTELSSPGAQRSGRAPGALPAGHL
Experiment: ELISA, hLAG-3-hFc coated; 0.0007 nM
attribute-measured: OD450 (OD450)
Give your result in OD450 as a bare value.

# OD450 lookup, item 409B11E12 (LAG-3 mouse-human chimeric antibody) (antibody, V domains shown) VH: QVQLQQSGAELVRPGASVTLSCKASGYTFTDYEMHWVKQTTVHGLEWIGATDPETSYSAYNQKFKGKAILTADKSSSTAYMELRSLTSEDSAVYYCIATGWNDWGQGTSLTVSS VL: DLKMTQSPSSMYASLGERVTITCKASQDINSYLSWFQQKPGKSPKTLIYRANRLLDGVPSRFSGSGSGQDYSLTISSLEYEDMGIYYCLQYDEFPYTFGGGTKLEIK
0.2
